- TGT: human dopamine transporter (hDAT) (Homo sapiens)
- Construct: expressed in transfected cells; host or cells: HEK-293, stably transfected
- Sequence (Q01959 whole entry): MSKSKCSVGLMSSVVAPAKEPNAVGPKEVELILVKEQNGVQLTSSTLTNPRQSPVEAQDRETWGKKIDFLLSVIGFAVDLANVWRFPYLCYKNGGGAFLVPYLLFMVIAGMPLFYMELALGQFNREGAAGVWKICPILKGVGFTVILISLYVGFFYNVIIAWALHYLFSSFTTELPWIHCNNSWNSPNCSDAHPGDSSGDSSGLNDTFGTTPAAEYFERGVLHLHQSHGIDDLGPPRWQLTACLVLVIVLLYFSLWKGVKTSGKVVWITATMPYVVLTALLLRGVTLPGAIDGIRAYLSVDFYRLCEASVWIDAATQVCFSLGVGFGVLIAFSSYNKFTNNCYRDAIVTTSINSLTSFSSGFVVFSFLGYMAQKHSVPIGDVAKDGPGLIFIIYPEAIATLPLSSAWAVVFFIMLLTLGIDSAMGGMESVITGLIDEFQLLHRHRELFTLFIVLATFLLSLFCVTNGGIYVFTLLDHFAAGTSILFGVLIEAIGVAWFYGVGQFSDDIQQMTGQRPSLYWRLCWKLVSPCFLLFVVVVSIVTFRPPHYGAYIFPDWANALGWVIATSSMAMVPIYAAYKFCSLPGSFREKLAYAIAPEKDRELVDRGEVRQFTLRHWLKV
- PROTOCOL_DESCRIPTION: Radioligand binding to cloned hDAT, [3H]WIN35428, HEK-293 cell membranes
- MEASUREMENT_CONDITIONS: in words
READOUT_NAME: Binding at hDAT compared to PRC200-SS

C[N+]1(C)CN[C@H](c2ccccc2)[C@@H](c2ccc3ccccc3c2)C1.[Cl-] [MCJ002-NH2-Cyc-SS]; Enhanced binding to hDAT
CNC[C@H](c1ccc2ccccc2c1)[C@@H](F)c1ccccc1 [MCJ001-F-RS]; Enhanced binding to hDAT
CNC[C@H](c1ccc2ccccc2c1)[C@H](F)c1ccccc1 [MCJ001-F-SS]; Enhanced binding to hDAT

---

- TGT: human norepinephrine transporter (hNET) (Homo sapiens)
- Construct: expressed in transfected cells; host or cells: HEK-293, stably transfected
- Sequence (P23975 whole entry): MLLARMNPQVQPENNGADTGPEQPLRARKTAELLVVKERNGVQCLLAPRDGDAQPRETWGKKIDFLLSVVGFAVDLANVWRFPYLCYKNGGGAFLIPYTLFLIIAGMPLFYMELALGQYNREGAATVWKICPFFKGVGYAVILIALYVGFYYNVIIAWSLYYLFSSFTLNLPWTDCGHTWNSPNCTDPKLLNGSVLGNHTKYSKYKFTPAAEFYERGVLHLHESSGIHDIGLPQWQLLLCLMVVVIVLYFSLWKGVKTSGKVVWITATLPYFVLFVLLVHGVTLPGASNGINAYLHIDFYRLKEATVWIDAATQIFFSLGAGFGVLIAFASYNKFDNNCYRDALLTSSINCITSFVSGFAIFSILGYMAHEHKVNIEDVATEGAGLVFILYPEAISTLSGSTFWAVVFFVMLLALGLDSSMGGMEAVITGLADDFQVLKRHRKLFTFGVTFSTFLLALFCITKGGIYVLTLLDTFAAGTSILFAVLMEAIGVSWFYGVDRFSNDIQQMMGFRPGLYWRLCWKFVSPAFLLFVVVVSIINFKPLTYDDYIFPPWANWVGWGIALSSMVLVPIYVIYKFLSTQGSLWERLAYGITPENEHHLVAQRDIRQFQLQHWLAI
- PROTOCOL_DESCRIPTION: Radioligand binding to cloned hNET, [3H]nisoxetine, HEK-293 cell membranes
READOUT_NAME: Kd (nM)
Give bare numbers, in nM.

Worked examples follow.
CNC[C@H](c1ccc2ccccc2c1)[C@@H](F)c1ccccc1; 0.9
CNC[C@H](c1ccc2ccccc2c1)[C@H](F)c1ccccc1; 1.3
CNCC(c1ccc2ccccc2c1)C(F)c1ccccc1 (racemic) [MCJ001-F-(±)-RR]; 4.5

I am curious: what Kd value has been reported for CNC[C@@H](c1ccc2ccccc2c1)[C@H](F)c1ccccc1 ?
430

---

- TGT: rat serotonin transporter, synaptosomal preparations (Rattus norvegicus)
- Construct: from tissue; host or cells: rat frontal cortex synaptosomes (male Sprague-Dawley)
- Sequence (P31652 whole entry): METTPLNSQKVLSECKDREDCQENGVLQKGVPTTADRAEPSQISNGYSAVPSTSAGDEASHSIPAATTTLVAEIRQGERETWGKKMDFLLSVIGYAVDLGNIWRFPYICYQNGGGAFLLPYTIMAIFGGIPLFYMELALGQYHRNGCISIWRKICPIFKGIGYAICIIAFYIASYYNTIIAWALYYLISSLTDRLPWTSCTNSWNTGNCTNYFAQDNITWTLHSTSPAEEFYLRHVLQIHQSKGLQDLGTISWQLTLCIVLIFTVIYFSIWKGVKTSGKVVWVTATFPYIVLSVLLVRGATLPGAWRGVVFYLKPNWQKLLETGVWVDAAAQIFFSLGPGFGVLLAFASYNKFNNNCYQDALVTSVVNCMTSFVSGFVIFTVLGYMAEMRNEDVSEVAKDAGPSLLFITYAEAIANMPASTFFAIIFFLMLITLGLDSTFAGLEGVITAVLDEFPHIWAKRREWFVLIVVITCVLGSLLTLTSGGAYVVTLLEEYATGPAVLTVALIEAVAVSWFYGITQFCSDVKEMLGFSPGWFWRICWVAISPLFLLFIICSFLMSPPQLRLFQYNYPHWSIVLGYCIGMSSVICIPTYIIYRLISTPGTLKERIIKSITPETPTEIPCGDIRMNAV
- PROTOCOL_DESCRIPTION: Inhibition of [3H]5-HT reuptake in rat brain synaptosomes (frontal cortex)
- Format: biochemical
READOUT_NAME: pKi
One number for each entry, as −log10 of the molar value.

Worked examples follow.
CNC[C@@H](c1ccc2ccccc2c1)[C@H](F)c1ccccc1 [MCJ001-F-SR]; 7.28
CNCC(c1ccc2ccccc2c1)C(F)c1ccccc1 (racemic) [MCJ001-F-(±)-RR]; 7.05
CNC[C@H](c1ccc2ccccc2c1)[C@H](O)c1ccccc1 [PRC200-SS, reference compound]; 8.67

I am curious: what pKi value has been reported for CNC[C@H](c1ccc2ccccc2c1)[C@@H](F)c1ccccc1 [MCJ001-F-RS] ?
8.05

---

- Test system: hSERT, hNET, hDAT
- PROTOCOL_DESCRIPTION: Human transporter binding: rank order and range of potency over the three transporters
- MEASUREMENT_CONDITIONS: from KD values
READOUT_NAME: Potency (rank-order of potency of binding; S = hSERT, N = hNET, D = hDAT)

CNC[C@H](c1ccc2ccccc2c1)[C@H](OCCCCCO[C@H](c1ccccc1)[C@H](CNC)c1ccc2ccccc2c1)c1ccccc1; D > S > N
CN1CO[C@@H](c2ccccc2)[C@H](c2ccc3ccccc3c2)C1; D > S > N

---

- TGT: human norepinephrine transporter (Homo sapiens)
- Sequence (P23975 whole entry): as the sequence (P23975 whole entry) above
- PROTOCOL_DESCRIPTION: Inhibition of [3H]NE transport into HEK-293 cells expressing the human transporter
Kindly state log10 Ki for each of the entries shown.
Note the log scale: values are log10 of Ki expressed in nM.

Hi there! I need log10 Ki for each item below, if you can.
1. CNC[C@@H](c1ccc2ccccc2c1)[C@H](N=[N+]=[N-])c1ccccc1 [MCJ001-N3-SR]
2. CNC[C@H](c1ccc2ccccc2c1)[C@H](OC)c1ccccc1 [MCJ001-OMe-SS]

1. 3.15
2. 0.08

Hi there! I need log10 Ki for each item below, if you can.
1. CNC[C@H](c1ccc2ccccc2c1)[C@@H](F)c1ccccc1 [MCJ001-F-RS]
2. CNCC(c1ccc2ccccc2c1)C(F)c1ccccc1 (racemic) [MCJ001-F-(±)-RR]
3. CNC[C@H](c1ccc2ccccc2c1)[C@H](OCCCCCO[C@H](c1ccccc1)[C@H](CNC)c1ccc2ccccc2c1)c1ccccc1 [MCJ001-Dimer5-SS]
4. CNC[C@H](c1ccc2ccccc2c1)[C@H](O)c1ccccc1 [PRC200-SS, reference compound]
5. CNC[C@H](c1ccc2ccccc2c1)[C@@H](N=[N+]=[N-])c1ccccc1 [MCJ001-N3-RS]

[0.68, 0.32, 2.86, 0.78, 1.38]

---

- TGT: human serotonin transporter (Homo sapiens, UniProt P31645)
- PROTOCOL_DESCRIPTION: Inhibition of [3H]5-HT transport into HEK-293 cells expressing the human transporter
Kindly state log10 of Ki for each of the entries shown.
Note the log scale: values are log10 of Ki expressed in µM.

Hi there! I need log10 of Ki for each item below, if you can.
1. CNC[C@H](c1ccc2ccccc2c1)[C@H](O)c1ccccc1 [PRC200-SS, reference compound]
2. CNC[C@@H](c1ccc2ccccc2c1)[C@H](F)c1ccccc1
3. CNC[C@H](c1ccc2ccccc2c1)[C@@H](N=[N+]=[N-])c1ccccc1
4. CNC[C@H](c1ccc2ccccc2c1)[C@H](OCCCCCO[C@H](c1ccccc1)[C@H](CNC)c1ccc2ccccc2c1)c1ccccc1
5. CNC[C@H](c1ccc2ccccc2c1)[C@H](OC)c1ccccc1
6. CNC[C@@H](c1ccc2ccccc2c1)[C@H](N=[N+]=[N-])c1ccccc1
7. CNC[C@H](c1ccc2ccccc2c1)[C@@H](F)c1ccccc1
8. CNCC(c1ccc2ccccc2c1)C(F)c1ccccc1 (racemic) [MCJ001-F-(±)-RR]

[-2.55, -0.82, -1.32, -1.85, -1.92, -1.34, -2.46, -1.74]

---

- TGT: human serotonin transporter (Homo sapiens, UniProt P31645)
- PROTOCOL_DESCRIPTION: Inhibition of [3H]5-HT transport into HEK-293 cells expressing the human transporter
- MEASUREMENT_CONDITIONS: read-out: Inhibitor Constant (Ki), 5-HT transport; Geometric Mean ± SEM; HEK-293 whole cells
READOUT_NAME: Ki (nM)
Numbers only, in nM.

I am curious: what Ki value has been reported for CNCC(c1ccc2ccccc2c1)C(OC)c1ccccc1 (racemic) [MCJ001-OMe-(±)-SR] ?
60

---

- TGT: UniProt Q01959
- PROTOCOL_DESCRIPTION: Inhibition of [3H]DA transport into HEK-293 cells expressing the human transporter
- MEASUREMENT_CONDITIONS: read-out: Inhibitor Constant (Ki), DA transport; Geometric Mean ± SEM; HEK-293 whole cells
READOUT_NAME: pKi
One number for each entry, as −log10 of the molar value.

Lab note: need pKi with UniProt Q01959 for entry CNCC(c1ccc2ccccc2c1)C(OC)c1ccccc1 (racemic) [MCJ001-OMe-(±)-SR] , please look it up.
5.62

---

- TGT: rat norepinephrine transport, synaptosomal preparations (Rattus norvegicus)
- Construct: from tissue; host or cells: rat occipital cortex synaptosomes (male Sprague-Dawley)
- Sequence (Q63380 1-617): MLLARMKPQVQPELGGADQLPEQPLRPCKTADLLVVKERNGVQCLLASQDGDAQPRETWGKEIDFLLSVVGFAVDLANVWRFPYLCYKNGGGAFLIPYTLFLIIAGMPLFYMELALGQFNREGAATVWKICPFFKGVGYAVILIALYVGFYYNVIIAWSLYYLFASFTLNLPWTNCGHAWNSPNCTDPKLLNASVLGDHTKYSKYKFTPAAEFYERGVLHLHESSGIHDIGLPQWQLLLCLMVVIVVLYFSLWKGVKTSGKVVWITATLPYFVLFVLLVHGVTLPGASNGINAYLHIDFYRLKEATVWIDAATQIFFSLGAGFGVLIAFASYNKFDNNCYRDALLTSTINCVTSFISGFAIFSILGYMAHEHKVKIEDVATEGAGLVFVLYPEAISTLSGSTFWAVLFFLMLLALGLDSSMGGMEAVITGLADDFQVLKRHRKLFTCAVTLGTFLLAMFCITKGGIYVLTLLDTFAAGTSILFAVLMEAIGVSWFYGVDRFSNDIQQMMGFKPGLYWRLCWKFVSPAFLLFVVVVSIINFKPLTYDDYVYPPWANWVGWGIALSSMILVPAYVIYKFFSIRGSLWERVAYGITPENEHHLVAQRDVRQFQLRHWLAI
- PROTOCOL_DESCRIPTION: Inhibition of [3H]NE reuptake in rat brain synaptosomes (occipital cortex)
- Type: biochemical
READOUT_NAME: Ki
Express your answer as a number followed by its unit.

Worked examples follow.
CNCC(c1ccc2ccccc2c1)C(F)c1ccccc1 (racemic) [MCJ001-F-(±)-RR]; 47 nM
CNC[C@H](c1ccc2ccccc2c1)[C@@H](F)c1ccccc1 [MCJ001-F-RS]; 9 nM

Next, consider the following molecule.
I am curious: what Ki value has been reported for CNC[C@H](c1ccc2ccccc2c1)[C@H](O)c1ccccc1 [PRC200-SS, reference compound] ?
6 nM

---

- TGT: rat dopamine transporter, synaptosomal preparations (Rattus norvegicus)
- Construct: and striatal tissues for transport of dopamine; from tissue; host or cells: rat striatum synaptosomes (male Sprague-Dawley)
- Sequence (P23977 whole entry): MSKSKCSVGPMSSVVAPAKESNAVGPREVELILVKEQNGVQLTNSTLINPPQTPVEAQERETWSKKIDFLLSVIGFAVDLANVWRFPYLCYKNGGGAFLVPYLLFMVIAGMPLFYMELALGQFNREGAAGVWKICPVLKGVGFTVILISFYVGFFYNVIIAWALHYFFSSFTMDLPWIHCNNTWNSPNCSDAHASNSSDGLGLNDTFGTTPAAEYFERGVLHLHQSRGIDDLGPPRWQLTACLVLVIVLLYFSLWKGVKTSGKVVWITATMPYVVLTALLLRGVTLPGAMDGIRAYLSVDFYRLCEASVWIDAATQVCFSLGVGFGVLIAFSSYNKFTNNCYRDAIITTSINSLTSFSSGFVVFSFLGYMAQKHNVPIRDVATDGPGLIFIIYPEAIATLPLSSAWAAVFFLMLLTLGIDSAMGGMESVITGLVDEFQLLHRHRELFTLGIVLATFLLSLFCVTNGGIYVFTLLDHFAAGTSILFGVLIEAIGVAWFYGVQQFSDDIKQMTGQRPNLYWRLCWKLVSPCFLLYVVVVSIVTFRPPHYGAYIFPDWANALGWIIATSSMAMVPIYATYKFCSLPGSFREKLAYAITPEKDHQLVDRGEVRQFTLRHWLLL
- PROTOCOL_DESCRIPTION: Inhibition of [3H]DA reuptake in rat brain synaptosomes (striatum)
- Format: biochemical
READOUT_NAME: Ki

CNC[C@H](c1ccc2ccccc2c1)[C@@H](F)c1ccccc1 [MCJ001-F-RS]; 0.058 µM

Next, consider the following compound.
I am curious: what Ki value has been reported for CNC[C@H](c1ccc2ccccc2c1)[C@H](O)c1ccccc1 [PRC200-SS, reference compound] ?
0.061 µM

---

- TGT: human serotonin transporter (hSERT) (Homo sapiens)
- Construct: expressed in transfected cells; host or cells: HEK-293, stably transfected
- Sequence (P31645 whole entry): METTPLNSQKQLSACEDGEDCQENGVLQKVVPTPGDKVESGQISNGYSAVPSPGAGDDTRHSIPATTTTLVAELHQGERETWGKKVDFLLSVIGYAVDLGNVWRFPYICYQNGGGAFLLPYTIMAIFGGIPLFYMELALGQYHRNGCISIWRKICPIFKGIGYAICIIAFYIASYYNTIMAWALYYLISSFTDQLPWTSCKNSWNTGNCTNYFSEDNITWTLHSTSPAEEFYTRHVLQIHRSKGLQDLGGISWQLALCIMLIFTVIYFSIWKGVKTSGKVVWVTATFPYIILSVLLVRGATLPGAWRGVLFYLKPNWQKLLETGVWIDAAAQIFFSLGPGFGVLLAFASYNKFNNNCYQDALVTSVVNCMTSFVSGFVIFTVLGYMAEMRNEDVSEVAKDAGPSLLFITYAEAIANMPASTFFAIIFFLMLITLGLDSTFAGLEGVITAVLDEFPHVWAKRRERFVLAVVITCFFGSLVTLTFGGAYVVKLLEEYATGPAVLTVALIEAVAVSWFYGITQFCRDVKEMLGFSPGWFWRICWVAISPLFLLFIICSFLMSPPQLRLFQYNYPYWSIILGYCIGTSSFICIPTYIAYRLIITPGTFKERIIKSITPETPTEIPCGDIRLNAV
- PROTOCOL_DESCRIPTION: Radioligand binding to cloned hSERT, [3H]citalopram, HEK-293 cell membranes
- MEASUREMENT_CONDITIONS: Geometric Mean ± SEM; HCl salts; read-out: Equilibrium Dissociation Constant (KD) for Transporter Binding, hSERT (S)
Kindly state pKd for each of the entries shown.
One number for each entry, as −log10 of the molar value.

CNCC(c1ccc2ccccc2c1)C(OC)c1ccccc1 (racemic) [MCJ001-OMe-(±)-SR]; 6.15
CNC[C@H](c1ccc2ccccc2c1)[C@@H](N)c1ccccc1; 7.00
CNC[C@H](c1ccc2ccccc2c1)[C@H](OC)c1ccccc1; 7.89
C[N+]1(C)CN[C@H](c2ccccc2)[C@@H](c2ccc3ccccc3c2)C1.[Cl-]; 8.72
CNC[C@H](c1ccc2ccccc2c1)[C@@H](N=[N+]=[N-])c1ccccc1; 6.91
CNC[C@@H](c1ccc2ccccc2c1)[C@@H](N)c1ccccc1 (racemic) [MCJ001-NH2-(±)-RR]; 8.90

Hi there! I need pKd for each item below, if you can.
1. c1ccc([C@H]2OCNC[C@@H]2c2ccc3ccccc3c2)cc1
2. CN1CO[C@@H](c2ccccc2)[C@H](c2ccc3ccccc3c2)C1
3. CNC[C@H](c1ccc2ccccc2c1)[C@H](OCCCCO[C@H](c1ccccc1)[C@H](CNC)c1ccc2ccccc2c1)c1ccccc1
4. CN1CO[C@H](c2ccccc2)[C@@H](c2ccc3ccccc3c2)C1
5. CN(C)C[C@H](c1ccc2ccccc2c1)[C@H](N)c1ccccc1
6. CNC[C@H](c1ccc2ccccc2c1)[C@@H](Cl)c1ccccc1
7. CNC[C@@H](c1ccc2ccccc2c1)[C@@H](F)c1ccccc1
8. CNC[C@H](c1ccc2ccccc2c1)[C@H](OC(C)=O)c1ccccc1

1. 8.10
2. 6.62
3. 7.03
4. 8.74
5. 8.62
6. 8.96
7. 7.80
8. 7.26
